- experimental_system: ERα (Homo sapiens, UniProt P03372)
- Construct: host or cells: MCF7
- Sequence (P03372 whole entry): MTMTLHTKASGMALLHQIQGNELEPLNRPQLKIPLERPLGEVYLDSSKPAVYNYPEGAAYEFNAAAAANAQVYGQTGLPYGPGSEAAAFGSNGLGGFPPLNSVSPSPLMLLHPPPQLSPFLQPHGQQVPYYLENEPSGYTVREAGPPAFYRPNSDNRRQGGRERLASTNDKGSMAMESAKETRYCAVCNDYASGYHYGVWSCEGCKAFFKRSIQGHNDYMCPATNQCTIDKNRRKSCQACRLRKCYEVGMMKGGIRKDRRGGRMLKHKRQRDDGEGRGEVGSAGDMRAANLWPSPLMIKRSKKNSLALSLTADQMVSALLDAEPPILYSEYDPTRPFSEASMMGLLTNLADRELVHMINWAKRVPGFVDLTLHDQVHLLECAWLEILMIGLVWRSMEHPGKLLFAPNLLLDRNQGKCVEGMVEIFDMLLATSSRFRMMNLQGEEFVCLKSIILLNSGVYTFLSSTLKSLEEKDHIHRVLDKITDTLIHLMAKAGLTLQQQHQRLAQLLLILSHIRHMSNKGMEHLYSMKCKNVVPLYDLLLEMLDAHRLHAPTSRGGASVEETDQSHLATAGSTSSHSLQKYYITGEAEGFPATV
- procedure_details: Estrogen receptor degradation activity: breast cancer cell ERα in cell western assay (MCF7 cells)
- Assay type: cell-based
- setup_conditions: 4 hours post compound addition, concentration which degrades 50% of the estrogen receptor, read-out: Degradation IC50
measured_metric: DC50 (nM)

>>> measured_result("Cl.O=C(O)c1ccc2c(c1)CCCC(c1cccc(F)c1Cl)=C2c1ccc(CC2CN(CCCF)C2)cc1")
0.3
>>> measured_result("CC1CCc2cc(C(=O)O)ccc2C(c2ccc(CC3CN(CCCF)C3)cc2)=C1c1ccc(Cl)cc1 (single isomer, unassigned) [Example 328]")
0.4
>>> measured_result("O=C(O)c1c(F)cc2c(c1F)CCCC(c1ccccc1Cl)=C2c1ccc(CC2CN(CCCF)C2)cc1")
43
>>> measured_result("O=C(O)c1ccc2c(c1)CCCC(c1ccc(F)cc1C(F)(F)F)=C2c1ccc(CC2CN(CCCF)C2)cc1")
0.3
>>> measured_result("CC1CCc2cc(C(=O)O)ccc2C(c2ccc(CC3CN(CCCF)C3)cc2)=C1c1ccc(Cl)cc1 (single isomer, unassigned) [Example 327]")
4.7
>>> measured_result("O=C(O)c1ccc2c(c1)CCCC(c1ccc(Cl)cc1Cl)=C2c1ccc(CC2CN(CCCF)C2)cc1")
0.3
>>> measured_result("CCC1CCc2cc(C(=O)O)ccc2C(c2ccc(CC3CN(CCCF)C3)cc2)=C1c1ccc(Cl)cc1 (single isomer, unassigned) [Example 329]")
1.3
